The measurements presented in this section are drawn from ChEMBL document CHEMBL1141038.

Test: Area under the curve in plasma of DIO mice after 10 mg/kg oral dose
Type: ADME, organism-based
Parameters: dose 10 mg/kg, route oral
Details: mouse, in vivo
observationType: AUC (ng·h/mL)
Just the number in ng·h/mL, nothing appended.

Would you kindly share the measured AUC for "CC(C)OCCNc1ncc(Cl)cc1C(=O)NC1CCN(Cc2ccc3c(c2)OCO3)CC1" ?
677

---

Assay: Brain half life in DIO mice after 10 mg/kg oral dose
Type: ADME, organism-based
Set-up: dose 10 mg/kg, route oral
Settings: mouse
half-life values by entry
Just the number in h, nothing appended.

> print(dat)
                                entrysmiles  endpointresult
1  O=C(NC1CCN(Cc2ccc3c(c2)OCO3)CC1)c1cc(Cl)ccc1NCc1nccs1             7.8

Would you kindly share the measured half-life for "CC(C)OCCNc1ncc(Cl)cc1C(=O)NC1CCN(Cc2ccc3c(c2)OCO3)CC1" ?
1.4

---

Test: Plasma area under curve in DIO mice after 10 mg/kg oral dose
Assay type: ADME, organism-based
Parameters: dose 10 mg/kg, route oral
Details: mouse, in vivo
observationType: AUC
Quote the value and follow it with the unit of measurement.

Would you kindly share the measured AUC for "O=C(NC1CCN(Cc2ccc3c(c2)OCO3)CC1)c1cc(Cl)ccc1NCc1nccs1" ?
4100 ng·h/mL

---

Assay: Plasma Cmax in DIO mice after 10 mg/kg oral dose
Type: ADME, organism-based
Design: dose 10 mg/kg, route oral
Settings: mouse
observationType: Cmax (ng/mL)
Just the number in ng/mL, nothing appended.

Would you kindly share the measured Cmax for "CC(C)OCCNc1ncc(Cl)cc1C(=O)NC1CCN(Cc2ccc3c(c2)OCO3)CC1" ?
283

---

Assay: Brain/plasma in DIO mice after 10 mg/kg oral dose
Assay type: ADME, organism-based
Parameters: dose 10 mg/kg, route oral
Details: mouse, read-out: AUC
observationType: Kp

Would you kindly share the measured Kp for "CC(C)OCCNc1ncc(Cl)cc1C(=O)NC1CCN(Cc2ccc3c(c2)OCO3)CC1" ?
0.84

---

Target: Melanin-concentrating hormone receptor 1 (Homo sapiens)
Sequence (Q99705 whole entry): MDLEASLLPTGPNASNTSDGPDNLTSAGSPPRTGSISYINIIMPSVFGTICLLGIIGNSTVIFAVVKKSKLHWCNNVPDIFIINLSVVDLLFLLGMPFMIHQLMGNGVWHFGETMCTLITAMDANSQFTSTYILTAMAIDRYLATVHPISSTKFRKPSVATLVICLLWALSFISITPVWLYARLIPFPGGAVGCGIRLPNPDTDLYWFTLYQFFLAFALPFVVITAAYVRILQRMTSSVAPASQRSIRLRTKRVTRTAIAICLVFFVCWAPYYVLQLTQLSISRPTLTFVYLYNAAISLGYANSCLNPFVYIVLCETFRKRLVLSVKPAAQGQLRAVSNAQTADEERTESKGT
Experiment: Inhibitory activity towards melanin-concentrating hormone receptor 1 in IMR32 cells
Assay type: cell-based, IMR-32
observationType: IC50 (nM)
Just the number in nM, nothing appended.

> print(dat)
                                entrysmiles                              testedtarget  endpointresult
1  COc1ccc(NCc2ncc[nH]2)c(C(=O)NC2CCN(Cc3ccc4c(c3)OCO4)CC2)c1  Melanin-concentrating hormone receptor 1 (Homo sapiens)              70

--- query ---
Would you kindly share the measured IC50 for "O=C(NC1CCN(Cc2ccc3c(c2)OCO3)CC1)c1cc(Cl)cnc1NC1CCC1" ?
70

---

Target: Melanin-concentrating hormone receptor 1 (Homo sapiens)
Assay: Inhibitory activity towards melanin-concentrating hormone receptor 1 in IMR32 cells
Format: cell-based, IMR-32
pIC50: −log10 of the molar value.
pIC50 of 7 or higher: TRUE. Under 7: FALSE.

The examples below pair each entry with its known result.
> print(dat)
                                entrysmiles                              testedtarget  assignedclass
1  O=C(NC1CCN(Cc2ccc(Cl)cc2)CC1)c1cc(Cl)cnc1NCc1ccco1  Melanin-concentrating hormone receptor 1 (Homo sapiens)           TRUE
2  COc1ccc(NCc2ccccn2)c(C(=O)NC2CCN(Cc3ccc4c(c3)OCO4)CC2)c1  Melanin-concentrating hormone receptor 1 (Homo sapiens)           TRUE

Given "CNc1ccc(Cl)cc1C(=O)NC1CCN(Cc2ccc3c(c2)OCO3)CC1" , state whether its pIC50 is at least 7.
FALSE

Given "O=C(NC1CCN(Cc2ccc3c(c2)OCO3)CC1)c1cc(Cl)cnc1Cl" , state whether its pIC50 is at least 7.
FALSE

Given "O=C(NC1CCN(Cc2ccc3c(c2)OCO3)CC1)c1cc(Cl)ccc1NCc1nccs1" , state whether its pIC50 is at least 7.
TRUE

Given "CC(C)OCCNc1ncc(Cl)cc1C(=O)NC1CCN(Cc2ccc3c(c2)OCO3)CC1" , state whether its pIC50 is at least 7.
TRUE

Given "COc1ccc(NS(C)(=O)=O)c(C(=O)NC2CCN(Cc3ccc4c(c3)OCO4)CC2)c1" , state whether its pIC50 is at least 7.
FALSE
